B1: RAD54B (parent)
chain: YVQEKRDGLKRRQQLEEELLRAKI

- Variants of: B1
- EXPERIMENTAL PROTOCOL: protein stability index of a GFP-peptide fusion (GPS, HEK-293T) (PSI 1-6); higher = more stable;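 also: lentivirally expressed fusions sorted by FACS into six bins by GFP to DsRed ratio, PSI derived from sequencing read proportions per bin multiplied by bin number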
- TEST SETTINGS: c terminus: a fixed tail appended
Binary classification by protein stability index, with 2 as an inclusive lower bound for class 1; all other cases are class 0.

INSERT INTO measurements (sequence_chain, class_assignment) VALUES
  ('YVQEKRDGLKRRQQLEEELLRRKI [A22R]', 'class 0'),
  ('YVQEKRDGLKRRQQLHEELLRAKI [E16H]', 'class 0'),
  ('YVQEKRDGLKRRQQLEEELLDAKI [R21D]', 'class 1'),
  ('YVQEKRDELKRRQQLEEELLRAKI [G8E]', 'class 1'),
  ('YVQEKRDGLKRRQQMEEELLRAKI [L15M]', 'class 1'),
  ('LVQEKRDGLKRRQQLEEELLRAKI [Y1L]', 'class 1'),
  ('YVQEKRDNLKRRQQLEEELLRAKI [G8N]', 'class 0'),
  ('YVQEKYDGLKRRQQLEEELLRAKI [R6Y]', 'class 1');

Reported protein stability index at or above 2? YVQEWRDGLKRRQQLEEELLRAKI [K5W]
class 1

Reported protein stability index at or above 2? SVQEKRDGLKRRQQLEEELLRAKI [Y1S]
class 1

Reported protein stability index at or above 2? YVQEKRFGLKRRQQLEEELLRAKI [D7F]
class 0
